Consider the following molecules and their measured IC50 readings.
# measurement description: In vitro cytotoxicity, Vero normal cells
# Type: cell-based, African green monkey
# experimental setup: African green monkey, Vero cells (kidney, non-tumorigenic)

Reference set (3 entries):
>>> meas_value("C=CC(C)(C)c1c2c(c(O)c3c(=O)c4ccc(OC)c(OC)c4oc13)C=CC(C)(C)O2")
"> 100 µM"
>>> meas_value("CC1Oc2c(c(O)c3c(=O)c4ccc(O)c(O)c4oc3c2Br)C1(C)C (centres unmarked)")
"9.52 µM"
>>> meas_value("CC(=O)Oc1ccc2c(=O)c3c(O)c4c(cc3oc2c1OC(C)=O)OC(C)C4(C)C (centres unmarked)")
"> 100 µM"

Here is another molecule to look at.
Req: Report IC50, nothing else, for this molecule: COc1ccc2c(=O)c3c(O)c4c(cc3oc2c1OC)OC(C)C4(C)C (centres unmarked)
Resp: > 100 µM
